Items are presented alongside their recorded GRinf.
Test system: Mycobacterium tuberculosis Erdman (autoluminescent)
Experiment: GRinf, maximum normalised growth rate inhibition (unitless (-1 to 1)); higher = less effect (negative = killing)
Condition context: in vitro model: dormancy (butyrate + nitrate, low O2); time point: terminal (~4-5 doublings, model-specific)

[[record]]
compound = "COc1nc2ccc(Br)cc2cc1[C@@H](c1ccccc1)[C@@](O)(CCN(C)C)c1cccc2ccccc12 [bedaquiline] + CO[C@H]1/C=C/O[C@@]2(C)Oc3c(C)c(O)c4c(O)c(c(/C=N/N5CCN(C)CC5)c(O)c4c3C2=O)NC(=O)/C(C)=C\\C=C\\[C@H](C)[C@H](O)[C@@H](C)[C@@H](O)[C@@H](C)[C@H](OC(C)=O)[C@@H]1C [rifampicin]"
measured_target = "Mycobacterium tuberculosis Erdman (autoluminescent)"
endpoint_result = -0.312


Next compound, please.
Would you mind telling me what GRinf value was observed for CO[C@H]1/C=C/O[C@@]2(C)Oc3c(C)c(O)c4c(O)c(c(/C=N/N5CCN(C6CCCC6)CC5)c(O)c4c3C2=O)NC(=O)/C(C)=C\C=C\[C@H](C)[C@H](O)[C@@H](C)[C@@H](O)[C@@H](C)[C@H](OC(C)=O)[C@@H]1C [rifapentine] + CO[C@H]1/C=C/O[C@@]2(C)Oc3c(C)c(O)c4c(O)c(c(/C=N/N5CCN(C)CC5)c(O)c4c3C2=O)NC(=O)/C(C)=C\C=C\[C@H](C)[C@H](O)[C@@H](C)[C@@H](O)[C@@H](C)[C@H](OC(C)=O)[C@@H]1C ? -0.0822

====

Items are presented alongside their recorded AUC25.
System: Mycobacterium tuberculosis Erdman (autoluminescent)
Experiment: AUC25, normalised area under dose response up to IC25 (three-drug combination) (fraction (0-1)); higher = more potent at low dose
Condition context: in vitro model: valerate; time point: terminal (~4-5 doublings, model-specific)
In your answer, state the number alone without any accompanying words.

[[record]]
molecule = "COc1nc2ccc(Br)cc2cc1[C@@H](c1ccccc1)[C@@](O)(CCN(C)C)c1cccc2ccccc12 [bedaquiline] + NNC(=O)c1ccncc1 [isoniazid] + NC(=O)c1cnccn1 [pyrazinamide]"
measurement_name = "AUC25"
endpoint_result = 0.0629

[[record]]
molecule = "O=[N+]([O-])c1cn2c(n1)OC[C@@H](OCc1ccc(OC(F)(F)F)cc1)C2 [pretomanid] + NC(=O)c1cnccn1 [pyrazinamide] + CO[C@H]1/C=C/O[C@@]2(C)Oc3c(C)c(O)c4c(O)c(c(/C=N/N5CCN(C)CC5)c(O)c4c3C2=O)NC(=O)/C(C)=C\\C=C\\[C@H](C)[C@H](O)[C@@H](C)[C@@H](O)[C@@H](C)[C@H](OC(C)=O)[C@@H]1C"
measurement_name = "AUC25"
endpoint_result = 0.0376

[[record]]
molecule = "COc1nc2ccc(Br)cc2cc1[C@@H](c1ccccc1)[C@@](O)(CCN(C)C)c1cccc2ccccc12 [bedaquiline] + CC(C)/N=c1\\cc2n(-c3ccc(Cl)cc3)c3ccccc3nc-2cc1Nc1ccc(Cl)cc1 [clofazimine] + NC(=O)c1cnccn1 [pyrazinamide]"
measurement_name = "AUC25"
endpoint_result = 0.0692


Would you mind telling me what AUC25 value was observed for CC(=O)NC[C@H]1CN(c2ccc(N3CCOCC3)c(F)c2)C(=O)O1 [linezolid] + O=[N+]([O-])c1cn2c(n1)OC[C@@H](OCc1ccc(OC(F)(F)F)cc1)C2 [pretomanid] + CO[C@H]1/C=C/O[C@@]2(C)Oc3c(C)c(O)c4c(O)c(c(/C=N/N5CCN(C)CC5)c(O)c4c3C2=O)NC(=O)/C(C)=C\C=C\[C@H](C)[C@H](O)[C@@H](C)[C@@H](O)[C@@H](C)[C@H](OC(C)=O)[C@@H]1C [rifampicin] ? 0.0505

====

Test system: Mycobacterium tuberculosis Erdman (autoluminescent)
Experiment: GRinf, maximum normalised growth rate inhibition (three-drug combination) (unitless (-1 to 1)); higher = less effect (negative = killing)
Condition context: in vitro model: cholesterol 0.05 mM; time point: terminal (~4-5 doublings, model-specific)
Items are presented alongside their recorded GRinf.
In your answer, state the number alone without any accompanying words.

These solved cases illustrate the format of a correct answer.
[[record]]
compound = "NC(=O)c1cnccn1 [pyrazinamide] + CO[C@H]1/C=C/O[C@@]2(C)Oc3c(C)c(O)c4c(O)c(c(/C=N/N5CCN(C6CCCC6)CC5)c(O)c4c3C2=O)NC(=O)/C(C)=C\\C=C\\[C@H](C)[C@H](O)[C@@H](C)[C@@H](O)[C@@H](C)[C@H](OC(C)=O)[C@@H]1C [rifapentine] + CO[C@H]1/C=C/O[C@@]2(C)Oc3c(C)c(O)c4c(O)c(c(/C=N/N5CCN(C)CC5)c(O)c4c3C2=O)NC(=O)/C(C)=C\\C=C\\[C@H](C)[C@H](O)[C@@H](C)[C@@H](O)[C@@H](C)[C@H](OC(C)=O)[C@@H]1C"
measurement_name = "GRinf"
endpoint_result = -0.108

[[record]]
compound = "CC(=O)NC[C@H]1CN(c2ccc(N3CCOCC3)c(F)c2)C(=O)O1 [linezolid] + O=[N+]([O-])c1cn2c(n1)OC[C@@H](OCc1ccc(OC(F)(F)F)cc1)C2 [pretomanid] + CO[C@H]1/C=C/O[C@@]2(C)Oc3c(C)c(O)c4c(O)c(c(/C=N/N5CCN(C)CC5)c(O)c4c3C2=O)NC(=O)/C(C)=C\\C=C\\[C@H](C)[C@H](O)[C@@H](C)[C@@H](O)[C@@H](C)[C@H](OC(C)=O)[C@@H]1C [rifampicin]"
measurement_name = "GRinf"
endpoint_result = -0.203

[[record]]
compound = "CC[C@@H](CO)NCCN[C@@H](CC)CO [ethambutol] + O=[N+]([O-])c1cn2c(n1)OC[C@@H](OCc1ccc(OC(F)(F)F)cc1)C2 [pretomanid] + CO[C@H]1/C=C/O[C@@]2(C)Oc3c(C)c(O)c4c(O)c(c(/C=N/N5CCN(C)CC5)c(O)c4c3C2=O)NC(=O)/C(C)=C\\C=C\\[C@H](C)[C@H](O)[C@@H](C)[C@@H](O)[C@@H](C)[C@H](OC(C)=O)[C@@H]1C [rifampicin]"
measurement_name = "GRinf"
endpoint_result = 0.216

[[record]]
compound = "COc1nc2ccc(Br)cc2cc1[C@@H](c1ccccc1)[C@@](O)(CCN(C)C)c1cccc2ccccc12 [bedaquiline] + CC[C@@H](CO)NCCN[C@@H](CC)CO [ethambutol] + CO[C@H]1/C=C/O[C@@]2(C)Oc3c(C)c(O)c4c(O)c(c(/C=N/N5CCN(C)CC5)c(O)c4c3C2=O)NC(=O)/C(C)=C\\C=C\\[C@H](C)[C@H](O)[C@@H](C)[C@@H](O)[C@@H](C)[C@H](OC(C)=O)[C@@H]1C [rifampicin]"
measurement_name = "GRinf"
endpoint_result = -0.177


Next compound, please.
Would you mind telling me what GRinf value was observed for NNC(=O)c1ccncc1 [isoniazid] + COc1c(N2C[C@@H]3CCCN[C@@H]3C2)c(F)cc2c(=O)c(C(=O)O)cn(C3CC3)c12 [moxifloxacin] + NC(=O)c1cnccn1 [pyrazinamide] ? -0.177

====

System: Mycobacterium tuberculosis Erdman (autoluminescent)
Experiment: GRinf, maximum normalised growth rate inhibition (unitless (-1 to 1)); higher = less effect (negative = killing)
Condition context: in vitro model: cholesterol-high 0.2 mM; time point: terminal (~4-5 doublings, model-specific)
Items are presented alongside their recorded GRinf.
In your answer, state the number alone without any accompanying words.

[[record]]
compound = "NNC(=O)c1ccncc1 [isoniazid] + CO[C@H]1/C=C/O[C@@]2(C)Oc3c(C)c(O)c4c(O)c(c(/C=N/N5CCN(C6CCCC6)CC5)c(O)c4c3C2=O)NC(=O)/C(C)=C\\C=C\\[C@H](C)[C@H](O)[C@@H](C)[C@@H](O)[C@@H](C)[C@H](OC(C)=O)[C@@H]1C"
measured_target = "Mycobacterium tuberculosis Erdman (autoluminescent)"
measurement_name = "GRinf"
endpoint_result = -0.717

[[record]]
compound = "CC[C@@H](CO)NCCN[C@@H](CC)CO [ethambutol] + CO[C@H]1/C=C/O[C@@]2(C)Oc3c(C)c(O)c4c(O)c(c(/C=N/N5CCN(C)CC5)c(O)c4c3C2=O)NC(=O)/C(C)=C\\C=C\\[C@H](C)[C@H](O)[C@@H](C)[C@@H](O)[C@@H](C)[C@H](OC(C)=O)[C@@H]1C [rifampicin]"
measured_target = "Mycobacterium tuberculosis Erdman (autoluminescent)"
measurement_name = "GRinf"
endpoint_result = -0.635

[[record]]
compound = "COc1nc2ccc(Br)cc2cc1[C@@H](c1ccccc1)[C@@](O)(CCN(C)C)c1cccc2ccccc12 [bedaquiline] + CC(C)/N=c1\\cc2n(-c3ccc(Cl)cc3)c3ccccc3nc-2cc1Nc1ccc(Cl)cc1 [clofazimine]"
measured_target = "Mycobacterium tuberculosis Erdman (autoluminescent)"
measurement_name = "GRinf"
endpoint_result = -0.62


Would you mind telling me what GRinf value was observed for CC[C@@H](CO)NCCN[C@@H](CC)CO [ethambutol] + COc1c(N2C[C@@H]3CCCN[C@@H]3C2)c(F)cc2c(=O)c(C(=O)O)cn(C3CC3)c12 [moxifloxacin] ? -0.639

Would you mind telling me what GRinf value was observed for CO[C@H]1/C=C/O[C@@]2(C)Oc3c(C)c(O)c4c(O)c(c(/C=N/N5CCN(C6CCCC6)CC5)c(O)c4c3C2=O)NC(=O)/C(C)=C\C=C\[C@H](C)[C@H](O)[C@@H](C)[C@@H](O)[C@@H](C)[C@H](OC(C)=O)[C@@H]1C [rifapentine] + CO[C@H]1/C=C/O[C@@]2(C)Oc3c(C)c(O)c4c(O)c(c(/C=N/N5CCN(C)CC5)c(O)c4c3C2=O)NC(=O)/C(C)=C\C=C\[C@H](C)[C@H](O)[C@@H](C)[C@@H](O)[C@@H](C)[C@H](OC(C)=O)[C@@H]1C ? -0.64

Would you mind telling me what GRinf value was observed for CC(C)/N=c1\cc2n(-c3ccc(Cl)cc3)c3ccccc3nc-2cc1Nc1ccc(Cl)cc1 [clofazimine] + NNC(=O)c1ccncc1 ? -0.882

Would you mind telling me what GRinf value was observed for COc1nc2ccc(Br)cc2cc1[C@@H](c1ccccc1)[C@@](O)(CCN(C)C)c1cccc2ccccc12 [bedaquiline] + NC(=O)c1cnccn1 [pyrazinamide] ? -0.654

Would you mind telling me what GRinf value was observed for CC[C@@H](CO)NCCN[C@@H](CC)CO [ethambutol] + O=[N+]([O-])c1cn2c(n1)OC[C@@H](OCc1ccc(OC(F)(F)F)cc1)C2 [pretomanid] ? -0.498

Data provenance: the supplement of paper PMC8617591
